Assay: protein stability index of a GFP-peptide fusion (GPS, HEK-293T) (PSI 1-6); higher = more stable;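 note: 24-mer peptide tiles fused after GFP, lentivirally expressed, FACS-sorted into six equal bins by GFP/DsRed ratio, decoded by Illumina sequencing, PSI is the read-weighted mean bin number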
Details: treatment: DMSO; c terminus: a fixed tail appended
The class of a record is decided solely by its measured protein stability index; consult bottom range = under 3, center range = from 3 up to 4, top range = 4 and over

>>> assigned_category("ERAKMSSSEVGPFVSKIRAVINDI [AUH]")
"bottom range"
>>> assigned_category("SASEILYSAPPGDPLSTNYSLAPN [NFE2L1]")
"top range"
>>> assigned_category("DYVDRGYYSVETVTLLVALKVRYR [PPP2CA]")
"bottom range"
>>> assigned_category("GGNHFRGTSDYDDVLSCEYYSPIL [KLHL13]")
"bottom range"
>>> assigned_category("LRNTLKSTSEDSLVKQECIKEVVE [FAN1]")
"top range"
>>> assigned_category("CDWLRATGFPQYAQLYEDFLFPID [DLC1]")
"bottom range"
>>> assigned_category("EDSSRDIREALHELLCCTNVSTKE [INTS4]")
"center range"
>>> assigned_category("GGWFCEGSFNGSEKETMQFLNDRL [KRT36]")
"center range"
>>> assigned_category("LKKPIKGKQAPRKKAQGKTQQNRK [KMT5A]")
"top range"
>>> assigned_category("KIESLMDEIEFLKKLHEEELRDLQ [PRPH]")
"center range"
>>> assigned_category("NPTSAPGSRLAEFGAAGVNRLSIG [RSAD1]")
"center range"
>>> assigned_category("CLKVGMRREAVQRGRMPPTQPTHG [NR2F2]")
"center range"
>>> assigned_category("ENKVVEKAPVQNEAPALGGGEYQE [BEX5]")
"top range"
>>> assigned_category("DVSSTEEFLELSPQKLKEVISLEK [GAN]")
"top range"
>>> assigned_category("EGLRRRRGREAGPPQPMVPLAVEN [PBXIP1]")
"top range"
>>> assigned_category("IKRTIRVLDVNNQSFREQEEPSNK [NET1]")
"center range"
>>> assigned_category("EEAKGLLDKVKDGGYRPAEDKIFP [ZBED1]")
"top range"
>>> assigned_category("CIPATVRSSFANQGEICLCTSRIF [ALDH8A1]")
"bottom range"
>>> assigned_category("KARGKSGPLFNFDVHDDVRLLSDA [FAM50A]")
"center range"
>>> assigned_category("IIEYRGKFMLREQFEANGYFFKRP [KMT2E]")
"bottom range"

====

Measured protein stability index by item
Assay: protein stability index of a GFP-peptide fusion (GPS, HEK-293T) (PSI 1-6); higher = more stable
Settings: treatment: MLN4924 1 uM, 8 h; c terminus: a fixed tail appended
assay_metric: protein stability index

>>> assay_value("QQIHVVSQFKILVSLLENNIYVHD [VPS39]")
3.23
>>> assay_value("RVGKWHQDFPVKKRKKLSTWKQEL [ZNF75A]")
2.92
>>> assay_value("ALREENRMLSKENKILQVFWEEHK [CBY2]")
3.28
>>> assay_value("SGITIPKPPKPPDKPLMPYMRYSR [SMARCE1]")
3.32
>>> assay_value("SASEILYSAPPGDPLSTNYSLAPN [NFE2L1]")
4.12
>>> assay_value("LMFLDICSELNKLCQHFEAVHSGT [SPACA9]")
2.4
>>> assay_value("DENLFTGEDLDELEEELNTLDLEE [ZC3H15]")
5.44
>>> assay_value("TQHLPRECLPENLGGYVKIDLATW [PTPN9]")
2.31
>>> assay_value("CSITGDSSRVIAASYDKTVRAWDL [WDR88]")
2.6
>>> assay_value("CTRFTDEYQLYEDIGKGAFSVVRR [CAMK2B]")
2.85
>>> assay_value("MTSSSAYYYTKVMSELFLHTPSDT [PKD2L1]")
2.16
>>> assay_value("LSLKRELSWYRGRRPRTAFTQNQI [HESX1]")
2.66
>>> assay_value("SLNSTFGSTNLTGLFFPPQLNGTA [NFE2L1]")
2.92
>>> assay_value("VEAVKNELRRQAPPPPPPSRGGPP [WASL]")
4.92
>>> assay_value("KAHETLHQSLSLASSPKGTIENIL [CDC25A]")
3.59

====

Test: protein stability index of a GFP-peptide fusion (GPS, HEK-293T) (PSI 1-6); higher = more stable
Settings: treatment: DMSO; c terminus: a fixed tail appended
The class of a record is decided solely by its measured protein stability index; consult low (below 3), mid (3 to below 5), high (5 or more)

>>> assigned_category("SGSESDHTTRSSLRGPRERAPSER [DVL3]")
"high"
>>> assigned_category("VTLKTAVDGPDLEMLTGQERVALA [FKBP8]")
"mid"
>>> assigned_category("LFAPLKLQMEFKAVQQVQRLPFLS [POMP]")
"low"
>>> assigned_category("DGLLGDNQIMPKAGLLIIVLAIIA [MAGEA3]")
"mid"
>>> assigned_category("AEMSRVSIRILDELVLPFQELQID [HNF4A]")
"low"
>>> assigned_category("EQEKEAQHKDQTAALPLAAEETAN [MAP2]")
"high"
>>> assigned_category("QKLGSGAWDNPAYSGPPSPHGTLR [PKD2L1]")
"mid"
>>> assigned_category("FKMPWKPTHPSSTHALAEWASRRE [CDC25B]")
"mid"
>>> assigned_category("RRRRIIINVGGIKYSLPWTTLDEF [KCNG1]")
"low"
>>> assigned_category("KYDPTIEDSYRKQVEVDAQQCMLE [RAP1B]")
"mid"
>>> assigned_category("SAPATAKENAAAPSPVRAPAPSPA [PALM]")
"high"
>>> assigned_category("VPGIFCAGADLKERAKMSSSEVGP [AUH]")
"mid"
>>> assigned_category("LPKPPGTPVVTESTATSITLTWDS [PTPRD]")
"mid"
>>> assigned_category("PTPPGQYFYPRGGGSGGGAGGAGG [JUNB]")
"mid"
>>> assigned_category("PEKRTQYFDPLRNEYFFDRNRPSF [KCNA4]")
"low"
>>> assigned_category("GDHERAIDFSPYLEPLGAPQAPAP [CEBPB]")
"mid"

====

Assay: protein stability index of a GFP-peptide fusion (GPS, HEK-293T) (PSI 1-6); higher = more stable
Conditions: treatment: DMSO; c terminus: a fixed tail appended
Measured protein stability index by item
assay_metric: protein stability index

>>> assay_value("RRLYHLEGFQRCDVARQLGKNNEF [PSD2]")
2.61
>>> assay_value("KVAKLLGYSTHADFVLEMNTAKST [NLN]")
1.9
>>> assay_value("SAENSVAKKEDKVPVKKQKTRTVF [NANOGP8]")
4.21
>>> assay_value("EDSCAELGESKEHMESRMVTETEE [SDE2]")
5.7
>>> assay_value("MTGRVCRGCGGTDIELDAARGDAV [BRF1]")
3.65
>>> assay_value("QAWFGFAGTPGYLSPEVLRKEAYG [CAMK2B]")
2.55
>>> assay_value("ACRVTELQQQPLCTSVNTIYDNAV [LRRC59]")
2.68
>>> assay_value("LPACTLCAGPLEDAVTIPCGHTFC [TRIM15]")
3.82
>>> assay_value("ALRAQRASSNVFSNFEQTQIQEFK [MYL5]")
4.07
>>> assay_value("LKEMYDADLLEEEVIISWSEKASK [EIF5]")
3.33
>>> assay_value("VFQHGDNSFRLLFDVVVILTCSLS [MCOLN1]")
3.25
>>> assay_value("SDNILSPVMNGGVQTWTQPRLCYL [PDZK1]")
2.19
>>> assay_value("QMSGEPLDKLNFEAINFCRGLGSQ [ACSBG2]")
3.51
>>> assay_value("AIGGTYLGPAFRGLKGRTLYPAVS [SPSB2]")
2.51
>>> assay_value("GVRDSGSPPLHANTSLHVFVLDEN [PCDHGC5]")
3.51
>>> assay_value("DSKIAFLMQLQDIQYLTENIWASQ [IQUB]")
2.9
>>> assay_value("PPTPGRPSLGPALSTGPRGLCAMP [VENTX]")
3.86
>>> assay_value("RYSTNLSNHVDDFTTFRGTELSFL [EDNRA]")
2.58
>>> assay_value("ITHSTVGSKGEKDLGASSLHVNGE [EHMT1]")
4.9
>>> assay_value("AATKQEGMEGLLGTLVQLLGSDDI [CTNNB1]")
2.63
>>> assay_value("AGFSPDCIMDDAINILQNEKSHQV [INTS4]")
4.13
>>> assay_value("QGQAKTPDSMFLAMLAVVSCASIG [CDK11A]")
3.36

====

Assay: protein stability index of a GFP-peptide fusion (GPS, HEK-293T) (PSI 1-6); higher = more stable
Details: treatment: DMSO; c terminus: a fixed tail appended
assay_metric: protein stability index

>>> assay_value("VLEHSLDREEEAIHHLVLTASDGG [PCDHGA10]")
4.66
>>> assay_value("ETDDPRRYQKYGYIGTHEYPHFSH [OAS1]")
2.88
>>> assay_value("VQGPGVVGEFPIISPGRVYEYTSC [FBXO3]")
2.72
>>> assay_value("FLPDLLIFQMVIICLMCVHSLERA [SMG5]")
3.28
>>> assay_value("TFVSGGCDKKAMVWDMRSGQCVQA [GNB5]")
2.68
>>> assay_value("LKERCAQDACQAQAREKELLELQS [CCDC89]")
4.1
>>> assay_value("KLEEERAKLHDVELHQVAERVEAL [GNB5]")
5
>>> assay_value("VLDSLLLTLLPQLQEAWQQRTPSP [RSAD1]")
2.85
